Species on record: Homo sapiens
Experiment: Inhibition of 0.5-0.7 uM of U-46,619 induced human platelet aggregation
Format: functional
pIC50: −log10 of the molar value.
measureName: pIC50

compound | measuredResult
COc1cc(CC2c3cc(O)c(O)cc3CCN2Cc2ccc(Cl)c(Cl)c2)cc(OC)c1OC (stereo not drawn) | 3.59
COc1cc(CC2c3cc(O)c(O)cc3CCN2Cc2ccc(Cl)cc2)cc(OC)c1OC (stereo not drawn) | 3.92
COc1cc(CC2c3cc(O)c(O)cc3CCN2Cc2ccc([N+](=O)[O-])cc2)cc(OC)c1OC (stereo not drawn) | 3.53
COc1cc(CC2c3cc(O)c(O)cc3CCN2Cc2ccc(C)cc2)cc(OC)c1OC (stereo not drawn) | 4.25
COc1cc(CC2c3cc(O)c(O)cc3CCN2Cc2ccc(N)cc2)cc(OC)c1OC (stereo not drawn) | 4.57
COc1ccc(CN2CCc3cc(O)c(O)cc3C2Cc2cc(OC)c(OC)c(OC)c2)cc1 (stereo not drawn) | 4.30
COc1cc(CC2c3cc(O)c(O)cc3CCN2Cc2ccccc2)cc(OC)c1OC (stereo not drawn) | 4.17
COc1cc(NCc2ccc3nc(N)nc(N)c3c2C)cc(OC)c1OC [TRIMETREXATE] | 6.11
